FYI, the data here is from PubChem BioAssay (NCATS).

target: Voltage-gated inwardly rectifying potassium channel KCNH2 (Homo sapiens) (UniProt Q12809); test: qHTS Assay for Small Molecule Inhibitors of the Human hERG Channel Activity (AID 588834); conditions: U2OS BacMam hERG, FluxOR thallium flux fluorescence; series mostly up to 46.1 µM;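 note: lower thallium flux fluorescence means stronger hERG block; nearly all actives have a fitted effect of over 50% in size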
Sequence (Q12809 whole entry, looked up): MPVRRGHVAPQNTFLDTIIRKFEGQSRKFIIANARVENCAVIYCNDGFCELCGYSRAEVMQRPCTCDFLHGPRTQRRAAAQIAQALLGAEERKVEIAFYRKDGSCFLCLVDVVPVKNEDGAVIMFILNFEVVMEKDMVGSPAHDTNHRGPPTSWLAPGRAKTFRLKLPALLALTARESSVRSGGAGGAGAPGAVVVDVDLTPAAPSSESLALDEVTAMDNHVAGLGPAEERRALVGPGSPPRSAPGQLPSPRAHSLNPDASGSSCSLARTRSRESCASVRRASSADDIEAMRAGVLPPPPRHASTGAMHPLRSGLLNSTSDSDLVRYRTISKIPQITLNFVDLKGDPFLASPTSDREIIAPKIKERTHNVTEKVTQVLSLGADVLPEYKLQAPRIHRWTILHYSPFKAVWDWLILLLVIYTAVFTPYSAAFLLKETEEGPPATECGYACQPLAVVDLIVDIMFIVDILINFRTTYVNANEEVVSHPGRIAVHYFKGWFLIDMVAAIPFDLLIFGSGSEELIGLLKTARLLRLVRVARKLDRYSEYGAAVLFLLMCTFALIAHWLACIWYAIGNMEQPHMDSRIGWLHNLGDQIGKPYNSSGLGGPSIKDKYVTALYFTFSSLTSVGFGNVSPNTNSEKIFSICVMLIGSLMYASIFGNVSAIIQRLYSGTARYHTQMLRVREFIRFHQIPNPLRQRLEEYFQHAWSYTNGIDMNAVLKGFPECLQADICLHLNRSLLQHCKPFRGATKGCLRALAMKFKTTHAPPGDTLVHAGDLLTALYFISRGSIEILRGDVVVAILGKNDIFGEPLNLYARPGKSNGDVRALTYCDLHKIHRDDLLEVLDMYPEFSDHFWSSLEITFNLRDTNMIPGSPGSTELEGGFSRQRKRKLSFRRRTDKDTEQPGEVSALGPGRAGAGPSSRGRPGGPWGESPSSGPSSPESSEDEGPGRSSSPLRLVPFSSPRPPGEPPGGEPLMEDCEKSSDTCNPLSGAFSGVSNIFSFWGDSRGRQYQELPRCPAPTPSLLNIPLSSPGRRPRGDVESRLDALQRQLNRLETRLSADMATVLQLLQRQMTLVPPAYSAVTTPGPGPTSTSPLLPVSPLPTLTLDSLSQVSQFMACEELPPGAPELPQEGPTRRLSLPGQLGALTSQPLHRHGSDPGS
Inconclusive results are not listed. Activity calls are given as the source filed them. Calls come from the whole dose curve; as a rule, active = well fitted inhibition curve with a large enough effect; inconclusive = small, poorly fitted or top-dose-only effect; inactive = flat fitted curve, though single readings scatter.
Your reply should match one of these outcome classes. 1 (active), -1 (inactive)

Check out these entries, answers already filled in.
| COMPOUND | CLASSIFICATION |
| --- | --- |
| O=S(=O)(O)c1cc(O)c2c(N=Nc3ccc(Nc4ccccc4)c4c(S(=O)(=O)O)cccc34)cc(S(=O)(=O)O)cc2c1 | -1 |
| C[C@H](CCC(=O)O)[C@H]1CC[C@H]2[C@@H]3[C@H](O)C[C@@H]4C[C@H](O)CC[C@]4(C)[C@H]3CC[C@]12C | -1 |
| CN=C(NC#N)Nc1ccc(C2=NNC(=O)C[C@@H]2C)cc1 | -1 |
| O=CCCCC=O | -1 |
| N[C@H](C(=O)O)[C@@H]1CC(Cl)=NO1 | -1 |
| Nc1ccn([C@H]2CS[C@@H](CO)O2)c(=O)n1 | -1 |
| CNc1cc(OC)c(C(=O)N[C@H]2CCN(Cc3ccccc3)[C@H]2C)cc1Cl | 1 |
| CO[C@H]1C[C@H](O[C@H]2[C@H](C)[C@@H](O[C@@H]3O[C@H](C)C[C@H](N(C)C)[C@H]3OC(C)=O)[C@@H](C)C[C@]3(CO3)C(=O)[C@H](C)[C@@H](OC(C)=O)[C@@H](C)[C@@H](C)OC(=O)[C@@H]2C)O[C@@H](C)[C@@H]1OC(C)=O | -1 |
| CO[C@H](C(=O)[C@@H](O)[C@@H](C)O)C1Cc2cc3cc(O[C@H]4C[C@@H](O[C@H]5C[C@@H](O)[C@H](O)[C@@H](C)O5)[C@@H](O)[C@@H](C)O4)c(C)c(O)c3c(O)c2C(=O)[C@H]1O[C@H]1C[C@@H](O[C@H]2C[C@@H](O[C@H]3C[C@](C)(O)[C@H](O)[C@@H](C)O3)[C@H](O)[C@@H](C)O2)[C@H](O)[C@@H](C)O1 (some centres not stated) | -1 |
| O=S(=O)(O)c1ccc2c(N=Nc3ccc(S(=O)(=O)O)c4ccccc34)c(O)c(S(=O)(=O)O)cc2c1 | -1 |

Inquiry: # lookup: test call for `CO/N=C(\C(=O)N[C@@H]1C(=O)N2C(C(=O)O)=C(CSc3cnns3)CS[C@H]12)c1csc(N)n1`
Reply text: -1

Inquiry: Entry `C[C@]12CCC(=O)C=C1CC[C@@H]1[C@@H]2[C@@H](O)C[C@@]2(C)[C@H]1CC[C@]2(O)C(=O)COP(=O)(O)O` : call = ?
Reply text: -1

Inquiry: Status in this test for CC(C)NCC1CCc2cc(CO)c([N+](=O)[O-])cc2N1 (configuration not stated) ?
Reply text: -1

Inquiry: State the result this test recorded for `Cc1c(C)c2c(c(C)c1O)CC[C@@](C)(CCC[C@@H](C)CCC[C@@H](C)CCCC(C)C)O2` .
Reply text: -1

Inquiry: Recorded call for `CC(=O)OCC(=O)[C@@]12OC3(CCCC3)O[C@@H]1C[C@H]1[C@@H]3CCC4=CC(=O)C=C[C@]4(C)[C@@]3(F)[C@@H](O)C[C@@]12C` ?
Reply text: -1

Inquiry: For COC(=O)C1=C(C#N)NC(C)=C(C(=O)OC(C)C)C1c1cccc([N+](=O)[O-])c1 (configuration not stated) , which call appears in the assay record?
Reply text: -1

Inquiry: Test call for this compound, please: `CC(=O)Oc1cc(C)c(OC(C)=O)c2ccccc12`
Reply text: -1
